Origin of values: the METLIN SMRT retention time set (Domingo-Almenara et al. 2019)

Exercise: for every item that follows, state its recorded RP-LC retention time.
Assay: gradient 5% acetonitrile 3 min, to 50% in 2 min, to 85% in 15 min, held 3 min, 100 µL/min
Conditions: column: Zorbax Extend-C18 2.1 x 50 mm; eluents: water / acetonitrile, 0.1% formic acid
Lab book: enter the figure in s, no units written.

**Q:** Output measured RP-LC retention time for this item: Cc1ccc(NC(=O)N2CCC(c3cc(N)on3)CC2)c(Cl)c1
**A:** 736

**Q:** Specify measured RP-LC retention time for Cn1c(=O)c(NCc2cccc(C(F)(F)F)c2)nc2ccncc21 .
**A:** 658

**Q:** Provide RP-LC retention time value for the following compound: O=C(NC1(c2nc(-c3cnccn3)no2)CCCCC1)c1ccco1
**A:** 712

**Q:** Read off the recorded RP-LC retention time for CCOc1ccc(C(=O)NCCc2nc3cccnc3n2CC)cc1
**A:** 642

**Q:** Look up RP-LC retention time of CCOC(=O)c1c(C)[nH]c(C(=O)N2CCCC(C(=O)NCCN3CCCCC3)C2)c1C (stereo not given) and report it.
**A:** 620

**Q:** Please give the documented RP-LC retention time of Cc1ccc(-c2nc(C)cc(OCC(=O)Nc3ccccc3C)n2)cc1
**A:** 1030

**Q:** Name the recorded RP-LC retention time of the item CCOc1ccc(-c2nn3c(CSc4ccccc4)nnc3s2)cc1OC in your answer.
**A:** 987

**Q:** Determine from records and report RP-LC retention time for CC(C)(C)c1noc(-c2ccc(-n3cnc(C(=O)N4CCCCC4)c3)nc2)n1
**A:** 742

**Q:** Report RP-LC retention time, nothing else, for this compound: O=C(Cn1nc2c3cc(-c4ccc(Cl)cc4)nn3ccn2c1=O)Nc1cc(F)ccc1F
**A:** 1020

**Q:** Supply reported RP-LC retention time belonging to this compound: CCN(CC)CCCNC(=O)C1CCCN(c2ncc(-c3cccc(F)c3)cn2)C1 (stereo not given)
**A:** 677

====

Experiment: gradient 5% acetonitrile 3 min, to 50% in 2 min, to 85% in 15 min, held 3 min, 100 µL/min
Details: column: Zorbax Extend-C18 2.1 x 50 mm; eluents: water / acetonitrile, 0.1% formic acid
Hi there, I'd appreciate the recorded RP-LC retention time for every entry that follows.
Hi, when you answer, please include the unit after the number. Thanks!

**Q:** Give recorded RP-LC retention time. Cc1nnc2c(=O)n(CC(=O)NCC3CC3)c3cccnc3n12
**A:** 610 s

**Q:** Retrieve RP-LC retention time measured for O=C(CSc1nnc2c3sc(N4CCCC4)nc3ncn12)Nc1ccc(F)cc1Cl and print it.
**A:** 869 s

**Q:** Answer with the recorded RP-LC retention time for the compound listed here: Cc1ccc(-c2ncccc2CNS(=O)(=O)c2ccc(F)c(F)c2)cc1
**A:** 738 s

**Q:** Determine its reported RP-LC retention time: O=C(c1ccc2c(c1)OCO2)N1CCN(Cc2nc(C3CC3)cs2)CC1
**A:** 611 s

**Q:** Tell me its RP-LC retention time given CCc1ccc(C(=O)Nc2nnc(SCc3nnc(-c4ccccc4)o3)s2)cc1 as the entry.
**A:** 1000 s

**Q:** Input COCCCNC(=O)CCc1c(-c2ccc(Cl)cc2)nc2ccccn12 , output reported RP-LC retention time.
**A:** 607 s

**Q:** Identify measured RP-LC retention time associated with Cc1[nH]c(C(=O)N2CCN(c3ccccc3F)CC2)c(C)c1S(=O)(=O)N1CCC(C)CC1
**A:** 1040 s

**Q:** Given the compound CC1CCCN(CC2CCN(C(=O)Nc3ccc(Br)cc3)CC2)C1 (stereo not given) , write its reported RP-LC retention time.
**A:** 661 s

**Q:** Provide measured RP-LC retention time value, entry: O=C(c1ccccn1)N1CCC(n2nc(-c3ccsc3)ccc2=O)CC1
**A:** 641 s

**Q:** Could you please provide reported RP-LC retention time for CCOC(=O)c1noc2ncnc(Nc3ccc(CC)cc3)c12 ? Thanks!
**A:** 1060 s

====

Would you mind telling me the reported RP-LC retention time of each entry?
Test: gradient 5% acetonitrile 3 min, to 50% in 2 min, to 85% in 15 min, held 3 min, 100 µL/min
Conditions: column: Zorbax Extend-C18 2.1 x 50 mm; eluents: water / acetonitrile, 0.1% formic acid
Numbers only here, please. The scale is s.

**Q:** Report RP-LC retention time, nothing else, for this molecule: CCOC(=O)c1cnc2nc(C)ccc2c1Nc1ccc(Cl)cc1
**A:** 752

**Q:** Provide one value: measured RP-LC retention time of CCOC(=O)c1cc(S(=O)(=O)N2CCCC2C(=O)N2CCC(Cc3ccccc3)CC2)cn1C (centres undefined)
**A:** 1020

**Q:** Annotate the molecule COc1ccc(Nc2nc(N3CCN(CCO)CC3)nc3c2C(=O)CCC3)cc1 with its measured RP-LC retention time.
**A:** 637

**Q:** Give the measured RP-LC retention time for O=C(Cn1c(=O)n(-c2ccccc2)c2ncccc21)NCCN1CCOCC1
**A:** 585

**Q:** Indicate the recorded RP-LC retention time value for this molecule: CCC(=O)N1c2ccccc2NC2=C(C(=O)CC(C)(C)C2)C1c1ccc(O)c(OC)c1 (centres undefined)
**A:** 703

**Q:** Please give the documented RP-LC retention time of CCc1nncn1C1CCN(S(=O)(=O)c2ccc(C)cc2C)CC1
**A:** 738

**Q:** Hello, please tell me recorded RP-LC retention time for this one: CNC(=O)[C@@H]1C[C@H](Oc2ccccc2)CN1C(=O)Cn1c(=O)oc2ccccc21
**A:** 732

**Q:** Note down RP-LC retention time recorded for CCN1CCC2(CC1)N=C(c1ccc(C)cc1C)CC(c1cc(Cl)ccc1O)N2 (centres undefined)
**A:** 668

**Q:** State, in one line, measured RP-LC retention time of O=C(C1CCN(c2nn3c(=O)c4c(nc3s2)CCCC4)CC1)N1CCN(c2ncccn2)CC1
**A:** 672

====

Assay: gradient 5% acetonitrile 3 min, to 50% in 2 min, to 85% in 15 min, held 3 min, 100 µL/min
Conditions: column: Zorbax Extend-C18 2.1 x 50 mm; eluents: water / acetonitrile, 0.1% formic acid
Can you tell me RP-LC retention time for the items I'm about to list?
Form entry: value (s) — number only.

**Q:** Quick one: give measured RP-LC retention time for NC(=O)c1c(NC(=O)C2CCCN(C(=O)c3cc(F)cc(F)c3)C2)sc2c1CCCC2 (centres undefined)
**A:** 1230

**Q:** Fill in reported RP-LC retention time for this entry: Cc1c(C(=O)N2CCOCC2)cnn1-c1ccc(-c2nc(C(C)(C)C)no2)cn1
**A:** 942

**Q:** Write down RP-LC retention time measured for item COc1ccc(-c2nc3cc(C)ccn3c2Nc2ccc3c(c2)OCCO3)cc1
**A:** 714

**Q:** Give RP-LC retention time for the following compound: CNC(=O)c1cn(-c2ccc(SCC(=O)NCc3ccc4c(c3)OCO4)nn2)cn1
**A:** 642

**Q:** Dear colleague, please send me the reported RP-LC retention time for CCC(=O)N(C1CCOCC1)C1CCN(S(=O)(=O)c2cc(F)ccc2C)CC1 when you can.
**A:** 864

**Q:** Please report RP-LC retention time for the following compound: CC1CCCN(CCCNC(=O)CC2CCN(C(=O)C3CCCCC3)CC2)C1 (centres undefined)
**A:** 604

**Q:** Retrieve RP-LC retention time measured for CCC1(C(=O)Nc2cc(OC)ccc2OC)CCCCC(=O)N1 (centres undefined) and print it.
**A:** 722

**Q:** Output measured RP-LC retention time for this item: CCCC[C@H]1C(=O)O[C@H](C)[C@H](NC(=O)c2cccc(NC=O)c2OC)C(=O)O[C@@H](C)[C@@H]1OC(=O)CC(C)C
**A:** 1190

**Q:** Could you please provide reported RP-LC retention time for Cc1scc2nc(C(=O)NC(C)C)nc(N(C)C)c12 ? Thanks!
**A:** 581

**Q:** Provide RP-LC retention time value for the following compound: Cc1ccc(-c2noc(CSc3nc4cc5c(cc4c(=O)n3CC3CCCO3)OCO5)n2)cc1 (centres undefined)
**A:** 1160

**Q:** Look up and report measured RP-LC retention time for this entry: CCOc1ncccc1CNC(=O)C1CCC1
**A:** 696

**Q:** Please give measured RP-LC retention time of the following entry: O=C(Cn1ccn2nc(-c3ccccc3)c(CO)c2c1=O)Nc1cc(F)ccc1Cl
**A:** 868

**Q:** Query RP-LC retention time for CCN(CC)CCCC(C)Nc1ccnc(/C=C/c2ccc(Cl)cc2)c1 (centres undefined)
**A:** 602

**Q:** Answer with the recorded RP-LC retention time of COCCCNC(=O)c1cc2c(n(-c3ccc(C(F)(F)F)cc3)c1=O)CCCC2=O only.
**A:** 823

**Q:** Give the value of RP-LC retention time reported for the following: CNC(=O)c1ccc2c(c1)CCN2C(=O)C(C)C
**A:** 644

**Q:** Specify reported RP-LC retention time for the compound shown: COc1cc(-c2cc(CN(CC3CCCO3)C(=O)C3CCCCC3)no2)cc(OC)c1OC (centres undefined)
**A:** 968

**Q:** Please indicate RP-LC retention time recorded for Cc1ccc(CNC(=O)Cn2nc(C(=O)N3CCOCC3)c3ccccc32)cc1
**A:** 753

**Q:** Using the record for CCn1cnc(S(=O)(=O)N2CCC(C(=O)N3CCN(c4cccc(C(F)(F)F)c4)CC3)CC2)c1 , state its measured RP-LC retention time.
**A:** 868

**Q:** Return the recorded RP-LC retention time value; entry: Cc1noc(-c2ccc(OC3CN(C(=O)Cc4ccsc4)C3)cc2)n1
**A:** 826
